# system: CXCR7 (Homo sapiens, UniProt P25106)
# Sequence (P25106 whole entry): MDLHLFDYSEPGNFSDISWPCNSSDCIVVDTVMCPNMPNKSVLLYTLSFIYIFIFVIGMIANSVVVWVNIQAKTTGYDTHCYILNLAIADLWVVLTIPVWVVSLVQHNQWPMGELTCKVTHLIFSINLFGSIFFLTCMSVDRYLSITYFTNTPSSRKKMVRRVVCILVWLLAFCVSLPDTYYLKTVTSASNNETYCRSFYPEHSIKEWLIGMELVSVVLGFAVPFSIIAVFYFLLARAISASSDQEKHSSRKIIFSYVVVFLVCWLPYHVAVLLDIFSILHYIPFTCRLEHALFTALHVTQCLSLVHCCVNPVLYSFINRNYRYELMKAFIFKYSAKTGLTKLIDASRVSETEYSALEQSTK
# procedure.summary: CXCR7 β-arrestin recruitment assay in CHO-CXCR7 cells (ProLink/EA β-galactosidase complementation), induced by human SDF-1a
# stated.conditions: assay buffer, SDF-1a at EC50 concentration
pIC50: −log10 of the molar value.
property.label: pIC50

*Q* What measured pIC50 goes with Cc1ccc(C(C)(C)NC(=O)CC2(NC(=O)c3cc(-c4ccc(F)cc4F)on3)CN([C@H]3CC[C@@](C)(O)CC3)C2)c(F)c1 ?
*A* 7.00 to 8.30

---

# system: CXCR7 (Homo sapiens)
# procedure.summary: CXCR7 β-arrestin recruitment assay in CHO-CXCR7 cells (ProLink/EA β-galactosidase complementation), induced by human SDF-1a
# stated.conditions: assay buffer, SDF-1a at EC50 concentration
property.label: IC50

Below, each entry is followed by its recorded IC50 result.
{"molecule": "CC(C)(NC(=O)CC1(NC(=O)c2cc(-c3ccc(F)cc3F)on2)CN([C@H]2CC[C@@](C)(O)CC2)C1)c1ncccn1", "result": "< 5 nM"}
{"molecule": "Cc1ccc(C(C)(C)NC(=O)CC2(NC(=O)c3cc(-c4ccc(F)cc4F)on3)CN([C@H]3CC[C@@](C)(O)CC3)C2)cc1C(F)(F)F", "result": "100 to 1000 nM"}

*Q* Kindly state the measured IC50 obtained for CC(C)(NC(=O)CC1(NC(=O)c2cc(-c3ccc(F)cc3F)on2)CN([C@H]2CC[C@](C)(O)CC2)C1)c1ccc(Cl)cc1 with CXCR7 (Homo sapiens).
*A* 100 to 1000 nM

*Q* Any idea what IC50 came out for Cc1cc(C)nc(C(C)(C)NC(=O)CC2(NC(=O)c3cc(-c4ccc(F)cc4F)on3)CN([C@H]3CC[C@](C)(O)CC3)C2)c1 on CXCR7 (Homo sapiens)?
*A* < 5 nM

*Q* Item Cc1cc(C)nc(C(C)(C)NC(=O)CC2(NC(=O)c3cc(-c4ccc(F)cc4F)on3)CN(C3CCOC3(C)C)C2)n1 (stereo not shown) with CXCR7 (Homo sapiens) - IC50?
*A* 100 to 1000 nM

*Q* Please state recorded IC50 (tested on CXCR7 (Homo sapiens)) of COc1cc(C(C)(C)NC(=O)CC2(NC(=O)c3cc(-c4ccc(F)cc4F)on3)CN([C@H]3CC[C@](C)(O)CC3)C2)ccn1
*A* < 5 nM

*Q* Form field - read-out: IC50; system: CXCR7 (Homo sapiens); submitted item: Cc1cc(C(C)(C)NC(=O)CC2(NC(=O)c3cn(-c4ccc(F)cc4F)nn3)CN(C3CCCCC3)C2)ccn1
*A* 5 to 100 nM

*Q* Hi! What's the reported IC50 for CC(C)(NC(=O)CC1(NC(=O)c2cc(-c3ccc(F)cc3F)on2)CN(CC2CCC2)C1)c1ccccn1 on CXCR7 (Homo sapiens)?
*A* 5 to 100 nM

*Q* Field: IC50 (CXCR7 (Homo sapiens)). Entry: CC(C)(NC(=O)CC1(NC(=O)c2cc(-c3ccc(F)cc3F)on2)CN([C@H]2CC[C@@](C)(O)CC2)C1)c1ccc(F)cc1
*A* 5 to 100 nM

*Q* Form field - read-out: IC50; system: CXCR7 (Homo sapiens); submitted item: CC(C)(NC(=O)CC1(NC(=O)c2nnc(-c3ccc(F)cc3F)s2)CN([C@H]2CC[C@](C)(O)CC2)C1)c1cccc(C#N)c1
*A* 5 to 100 nM

*Q* Kindly state the measured IC50 obtained for O=C(CC1(NC(=O)c2cc(-c3ccc(F)cc3F)on2)CN(C2CCCCC2)C1)N[C@H](CO)c1ccccc1 with CXCR7 (Homo sapiens).
*A* 5 to 100 nM

*Q* Request: IC50, test system CXCR7 (Homo sapiens), entry COc1cccc(C(C)(C)NC(=O)CC2(NC(=O)c3cc(-c4ccc(F)cc4F)on3)CN([C@H]3CC[C@](C)(O)CC3)C2)c1F
*A* 100 to 1000 nM

*Q* Form field - read-out: IC50; system: CXCR7 (Homo sapiens); submitted item: CC(C)(NC(=O)CC1(NC(=O)c2cc(-c3ccc(F)cc3F)on2)CN([C@H]2CC[C@](C)(O)CC2)C1)c1ccc(F)cc1F
*A* 5 to 100 nM

Data credit: patent US12448373B2
